MFI listing for selected binders.
# subject-of-test: T1, human Siglec-5 expressed on human primary cells (human, UniProt O15389 17-551)
# T1 construct: Endogenous receptor on human primary monocytes, dendritic cells, macrophages and neutrophils; also called CD170
# T1 sequence: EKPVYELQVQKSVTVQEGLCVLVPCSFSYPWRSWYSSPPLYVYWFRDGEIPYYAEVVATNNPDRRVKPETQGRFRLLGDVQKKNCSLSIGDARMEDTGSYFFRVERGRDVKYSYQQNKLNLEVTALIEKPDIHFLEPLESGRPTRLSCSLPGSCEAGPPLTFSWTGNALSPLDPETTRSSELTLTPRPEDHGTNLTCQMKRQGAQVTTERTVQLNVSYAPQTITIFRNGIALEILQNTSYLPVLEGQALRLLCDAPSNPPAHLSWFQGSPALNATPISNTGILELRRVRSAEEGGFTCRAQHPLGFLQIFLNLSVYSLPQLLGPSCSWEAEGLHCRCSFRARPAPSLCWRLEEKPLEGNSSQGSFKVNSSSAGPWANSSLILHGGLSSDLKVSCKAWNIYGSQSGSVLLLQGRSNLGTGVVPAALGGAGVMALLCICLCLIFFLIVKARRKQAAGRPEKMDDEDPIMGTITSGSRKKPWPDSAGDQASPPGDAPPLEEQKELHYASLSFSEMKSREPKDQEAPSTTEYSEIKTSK
# run-description: flow cytometry, human primary monocytes, 10 ug/ml mAb
Answer with a bare number; do not write a unit.

>>> numeric_result("anti-Siglec-5 monoclonal antibody 9A5 (antibody, IgG1, V domains shown) VH: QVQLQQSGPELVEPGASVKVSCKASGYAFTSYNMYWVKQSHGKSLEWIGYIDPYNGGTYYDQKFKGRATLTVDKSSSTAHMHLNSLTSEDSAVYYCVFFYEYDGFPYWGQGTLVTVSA VL: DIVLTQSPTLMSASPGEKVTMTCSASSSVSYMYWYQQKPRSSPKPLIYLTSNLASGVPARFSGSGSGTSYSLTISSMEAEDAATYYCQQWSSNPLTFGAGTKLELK")
368

// next item, MFI requested
// query GET /values?readout=MFI&item= anti-Siglec-5 monoclonal antibody 9B1 (antibody, IgG1, V domains shown) VH: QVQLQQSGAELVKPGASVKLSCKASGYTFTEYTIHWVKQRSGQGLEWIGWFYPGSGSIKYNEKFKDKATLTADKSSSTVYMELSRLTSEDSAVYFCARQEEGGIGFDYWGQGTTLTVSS VL: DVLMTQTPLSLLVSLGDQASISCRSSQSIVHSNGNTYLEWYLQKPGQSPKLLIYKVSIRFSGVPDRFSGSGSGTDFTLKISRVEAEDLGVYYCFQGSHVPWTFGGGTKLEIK
// result 382
